Assay: Oral pharmacokinetics in Balb/c mice, single dose 20 or 100 mg/kg
Conditions: male, Balb/c, mouse, plasma, po, 100 mg/kg
value.kind: Tmax

* CC[C@H]1OC(=O)[C@@](C)(F)C(=O)[C@H](C)[C@@H](O[C@@H]2O[C@H](C)C[C@H](N(C)C)[C@H]2O)[C@](C)(OC)C[C@@H](C)C(=O)[C@H](C)[C@H]2N(CCCCn3cc(-c4cccc(N)c4)nn3)C(=O)O[C@]12C [Form II, solithromycin] | 4 h

---

Test: Oral pharmacokinetics in Balb/c mice, single dose 20 or 100 mg/kg
Details: male, Balb/c, mouse, plasma, po, 100 mg/kg
value.kind: concentration at 6 h (ng/mL)

- CC[C@H]1OC(=O)[C@@](C)(F)C(=O)[C@H](C)[C@@H](O[C@@H]2O[C@H](C)C[C@H](N(C)C)[C@H]2O)[C@](C)(OC)C[C@@H](C)C(=O)[C@H](C)[C@H]2N(CCCCn3cc(-c4cccc(N)c4)nn3)C(=O)O[C@]12C [Form II, solithromycin]: 7200

Cited source for all entries: patent US8759500B2
